Tested system: Cannabinoid receptor 2 (Homo sapiens, UniProt P34972)
Sequence (P34972 whole entry): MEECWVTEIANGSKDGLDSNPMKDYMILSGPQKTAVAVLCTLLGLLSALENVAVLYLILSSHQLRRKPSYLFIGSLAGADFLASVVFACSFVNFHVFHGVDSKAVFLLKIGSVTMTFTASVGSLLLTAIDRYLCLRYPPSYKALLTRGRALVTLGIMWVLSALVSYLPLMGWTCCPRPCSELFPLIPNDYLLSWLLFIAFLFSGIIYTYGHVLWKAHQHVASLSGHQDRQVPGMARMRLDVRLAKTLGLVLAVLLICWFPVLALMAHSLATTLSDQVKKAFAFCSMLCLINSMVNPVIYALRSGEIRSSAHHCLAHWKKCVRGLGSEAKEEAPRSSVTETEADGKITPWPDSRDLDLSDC
Measurement protocol: Inverse agonist activity at human CB2 receptor expressed in CHO cell membranes assessed as inhibition of forskolin-stimulated cAMP production after 45 mins by TR-FRET assay
Readout type: EC50 (nM)

[[record]]
smiles_code = "CCN(CC)c1ccc(CN(c2ccccc2)S(=O)(=O)c2ccc(C)cc2)cc1"
readout_type = "EC50"
readout_value = 8.2


[a] CCN(CC)c1ccc(CN(c2ncc(C)s2)S(=O)(=O)c2ccc(OC)cc2)cc1
[b] CCN(CC)c1ccc(CN(c2ccccc2)S(=O)(=O)c2ccc(OC)cc2)cc1
[c] COc1ccc(S(=O)(=O)N(Cc2ccc(N3CCCCC3)cc2)c2ccccc2)cc1
Let's sort these by EC50, smallest first. Go ahead? Answer format: the labels, in the requested order.
b, c, a
(b: 2.5 nM, c: 49 nM, a: 73 nM)

---

Observed Ki for Cannabinoid receptor 1 (Homo sapiens, UniProt P21554), reported per entry below.
Readout type: Ki (nM)

[[record]]
smiles_code = "CCN(CC)c1ccc(CN(c2ccccc2)S(=O)(=O)c2ccc(C(C)C)cc2)cc1"
readout_type = "Ki"
unit_info = "nM"
readout_value = 2000

[[record]]
smiles_code = "Cc1ccc(S(=O)(=O)N(Cc2ccccc2)Cc2ccc(N3CCCCC3)cc2)cc1"
readout_type = "Ki"
unit_info = "nM"
readout_value = 1300

[[record]]
smiles_code = "CCN(CC)c1ccc(CN(c2ccccc2)S(=O)(=O)c2ccc(OC)cc2)cc1"
readout_type = "Ki"
unit_info = "nM"
readout_value = 500

[[record]]
smiles_code = "COc1ccc(S(=O)(=O)N(Cc2ccc(N3CCCCC3)cc2)c2ccccc2)cc1"
readout_type = "Ki"
unit_info = "nM"
readout_value = 590

[[record]]
smiles_code = "CCN(CC)c1ccc(CN(c2ccccc2)S(=O)(=O)c2ccc(C)cc2)cc1"
readout_type = "Ki"
unit_info = "nM"
readout_value = 81


[a] CCN(CC)c1ccc(CN(C2CCCCC2)S(=O)(=O)c2ccc(C)cc2)cc1
[b] CCN(CC)c1ccc(CN(Cc2ccccc2)S(=O)(=O)c2ccc(OC)cc2)cc1
[c] CCN(CC)c1ccc(CN(C2CCCCC2)S(=O)(=O)c2ccc(C(C)C)cc2)cc1
[d] CCN(CC)c1ccc(CN(Cc2ccccc2)S(=O)(=O)c2ccc(C)cc2)cc1
Order these by Ki, descending, and give the full ranking. Answer format: the labels, in the requested order.
d, c, b, a
(d: 2300 nM, c: 1400 nM, b: 690 nM, a: 210 nM)

---

Tested system: UniProt:P34972
Measurement protocol: Displacement of [3H]CP-55940 from human CB2 receptor expressed in CHO cell membranes after 1 hr by scintillation counting analysis
pKi: −log10 of the molar value.
Readout type: pKi

[[record]]
smiles_code = "CCOc1ccc(CN(Cc2ccccc2)S(=O)(=O)c2ccc(C)cc2)cc1"
readout_value = 6.64


[1] Cc1ccc(S(=O)(=O)N(Cc2ccccc2)Cc2ccc(N3CCCCC3)cc2)cc1
[2] Cc1ccc(S(=O)(=O)N(Cc2ccccc2)Cc2ccc(OC(C)C)cc2)cc1
[3] CCN(CC)c1ccc(CN(Cc2ccccc2)S(=O)(=O)c2ccc(OC(C)C)cc2)cc1
Order these by pKi, descending, and give the full ranking. Answer format: the labels, in the requested order.
1, 3, 2

[1] CCN(CC)c1ccc(CN(Cc2ccco2)S(=O)(=O)c2ccc(OC)cc2)cc1
[2] CCN(CC)c1ccc(CN(CC2CCCCC2)S(=O)(=O)c2ccc(C)cc2)cc1
I'm curious, which of these has a smaller pKi number: 1 or 2 ? // return label of chosen record
2

[A] CCN(CC)c1ccc(CN(Cc2ccccc2)S(=O)(=O)c2ccc(C(C)C)cc2)cc1
[B] CCN(CC)c1ccc(CN(c2ncc(C)s2)S(=O)(=O)c2ccc(C)cc2)cc1
[C] CCN(CC)c1ccc(CN(c2ccccc2)S(=O)(=O)c2ccc(OC)cc2)cc1
Let's sort these by pKi, smallest first. Go ahead? Answer format: the labels, in the requested order.
A, B, C
(A: 7.15, B: 7.85, C: 8.27)
